The entries below come with measured melting point values attached.

- O=C(C(c1ccccc1)N1C(=O)CCC1=O)N1CCN(c2cc(C(F)(F)F)cc(C(F)(F)F)c2)CC1 (racemic) [Compound 8]: 228.1 to 229.4 °C
- O=C([C@@H](c1ccccc1)N1C(=O)CCC1=O)N1CCN(c2cccc(Cl)c2)CC1 [(R)-3]: 167.3 to 168.1 °C
- Cc1cccc(N2CCN(C(=O)C(c3ccccc3)N3C(=O)CCC3=O)CC2)c1 (racemic) [Compound 5]: 188.7 to 192.1 °C
- O=C(C(c1ccccc1)N1C(=O)CCC1=O)N1CCC(c2cccc(C(F)(F)F)c2)CC1 (racemic) [Compound 19]: 100.1 to 101.5 °C
- O=C(C(c1ccccc1)N1C(=O)CCC1=O)N1CCN(c2ccc(C(F)(F)F)cc2)CC1 (racemic) [Compound 7]: 173.2 to 174.3 °C

Fill in reported melting point for this entry: O=C(C(c1ccccc1)N1C(=O)CCC1=O)N1CCN(c2cccc(C(F)F)c2)CC1 (racemic) [Compound 9]
156.4 to 157.6 °C

Fill in reported melting point for this entry: O=C(C(c1ccccc1)N1C(=O)CCC1=O)N1CCN(c2ccc3ccccc3c2)CC1 (racemic) [Compound 15]
197.1 to 198.5 °C
